Recorded drug sensitivity score values for a group of compounds are listed next.
Tested on: HCC1937
measurement-description: drug sensitivity score (DSS), CellTiter-Blue viability (DSS (AUC-based score)); higher = stronger viability inhibition; extreme values may be limits of the assay
condition-summary: incubation time: 72 h
metric-name: drug sensitivity score

- CC(C)C[C@@H](C(=O)N[C@H](C(=O)OC1CCCC1)c1ccccc1)[C@H](O)C(=O)NO: 14.9
- COc1cc2/c(=N/c3ccc(Br)cc3F)nc[nH]c2cc1OCC1CCN(C)CC1: 0
- O=C(Nc1ccncc1)C(=O)c1cn(Cc2ccc(Cl)cc2)c2ccccc12: 25.9
- COCC1(CO)C(=O)C2CCN1CC2 (stereo not given): 3.72
- COCC[n+]1c2c(n(Cc3cnccn3)c1C)C(=O)c1ccccc1C2=O: 39.1
